assay: Solubility of crystal form II in different aqueous media (37° C., 24 hours, HPLC); format: physicochemical; conditions: pH 5.04, fessif, thermodynamic from solid, Simulated postprandial intestinal fluid
Quantity name: solubility at 24 h (µg/mL)
Numbers only, in µg/mL.

input: Which value of solubility at 24 h has been reported for Cc1ccc(-c2ncccn2)c(C(=O)N2C3CCC2[C@@H](COc2ccc(F)cn2)CC3)c1 (stereo partly shown) [crystal form II] in the records?
output: 290

---

assay: Solubility of crystal form I in different solvents (visual, room temperature); type: physicochemical; settings: organic solvent or mixture, thermodynamic from solid, EtOH
Quantity name: solubility

input: What value of solubility has been recorded for this entry: Cc1ccc(-c2ncccn2)c(C(=O)N2C3CCC2[C@@H](COc2ccc(F)cn2)CC3)c1 (stereo partly shown) [crystal form I]
output: 22 to 55 mg/mL

---

experiment: Solubility of crystal form I in different solvents (visual, room temperature); assay type: physicochemical; details: thermodynamic from solid, water
Quantity name: solubility

input: What solubility value was documented for this molecule, Cc1ccc(-c2ncccn2)c(C(=O)N2C3CCC2[C@@H](COc2ccc(F)cn2)CC3)c1 (stereo partly shown) [crystal form I] ?
output: < 1000 µg/mL

---

biological target: hOX2R (Homo sapiens, UniProt O43614); test: In vitro test of OX2R: calcium signal change in HEK293-OX2 cells detected with FLIPR
Sequence (O43614 whole entry): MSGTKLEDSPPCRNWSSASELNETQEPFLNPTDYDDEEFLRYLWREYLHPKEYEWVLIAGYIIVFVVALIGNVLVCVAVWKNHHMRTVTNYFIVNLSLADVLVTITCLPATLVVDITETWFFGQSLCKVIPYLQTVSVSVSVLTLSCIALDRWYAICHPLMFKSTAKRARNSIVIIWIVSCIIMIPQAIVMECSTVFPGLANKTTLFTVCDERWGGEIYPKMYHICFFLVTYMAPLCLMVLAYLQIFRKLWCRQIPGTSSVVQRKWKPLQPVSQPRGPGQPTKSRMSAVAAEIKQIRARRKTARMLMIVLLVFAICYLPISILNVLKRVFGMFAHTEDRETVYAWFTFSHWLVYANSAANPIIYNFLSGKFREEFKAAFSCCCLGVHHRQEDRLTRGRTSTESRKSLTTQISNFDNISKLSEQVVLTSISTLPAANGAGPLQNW
Quantity name: IC50

input: # input compound: Cc1ccc(-c2ncccn2)c(C(=O)N2C3CCC2[C@@H](COc2ccc(F)cn2)CC3)c1 (stereo partly shown) [Compound 5-3] ; wanted: its IC50
output: < 50 nM

---

assay: Solubility of crystal form II in different aqueous media (37° C., 24 hours, HPLC); assay type: physicochemical; conditions: pH 7.95, thermodynamic from solid, water
Quantity name: solubility at 24 h

input: Fill in: solubility at 24 h of Cc1ccc(-c2ncccn2)c(C(=O)N2C3CCC2[C@@H](COc2ccc(F)cn2)CC3)c1 (stereo partly shown) [crystal form II] is ___
output: 140 µg/mL

---

test: Solubility of crystal form I in different solvents (visual, room temperature); assay type: physicochemical; settings: organic solvent or mixture, thermodynamic from solid, MIBK
Quantity name: solubility

input: Query: solubility; subject: Cc1ccc(-c2ncccn2)c(C(=O)N2C3CCC2[C@@H](COc2ccc(F)cn2)CC3)c1 (stereo partly shown) [crystal form I]
output: 24 to 60 mg/mL
